- TESTED_SYSTEM: Sphingosine 1-phosphate receptor 2 (Homo sapiens) (UniProt O95136)
- Sequence (O95136 whole entry, looked up): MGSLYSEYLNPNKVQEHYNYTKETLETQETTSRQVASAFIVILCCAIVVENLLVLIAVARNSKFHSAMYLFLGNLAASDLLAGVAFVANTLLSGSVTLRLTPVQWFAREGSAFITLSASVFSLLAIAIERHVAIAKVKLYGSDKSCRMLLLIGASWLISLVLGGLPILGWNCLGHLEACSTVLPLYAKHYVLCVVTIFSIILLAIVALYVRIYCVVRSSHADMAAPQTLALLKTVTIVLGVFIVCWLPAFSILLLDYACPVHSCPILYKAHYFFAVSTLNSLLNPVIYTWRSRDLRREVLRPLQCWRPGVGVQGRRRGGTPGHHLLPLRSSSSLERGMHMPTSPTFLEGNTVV
- METHOD_SUMMARY: human S1P2 receptor antagonists, primary screen, cell-based (AID 736);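 further: CRE beta-lactamase reporter cells expressing human S1P2 stimulated with S1P; 0% = agonist at EC80 alone and 100% = agonist plus reference antagonist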
- EXPERIMENTAL_CONTEXT: cell-based S1P2 antagonist assay, at 5 µM, active compounds read high
About 210 (0.22%) of roughly 97,000 compounds were called active. This excerpt belongs to a sample that is enriched for actives.
Assignment: determine reported inhibition for the given compounds.
Supply the numeric figure in %, leaving out any unit text.

Just so you know, measured inhibition for CC(C)C(NC(=O)c1ccc(Cl)cc1)C(=O)O (centres undefined) came out at 18.8

Just so you know, measured inhibition for CC1=C/C(=N\OS(=O)(=O)c2ccccc2)C=CC1=O came out at 82.9

Just so you know, measured inhibition for O=C(COc1ccc(Cl)cc1)NCCSc1ccccc1 came out at -5.9

Just so you know, measured inhibition for O=C(Cc1c(O)c2ccccc2[nH]c1=O)NCc1ccccc1 came out at 2.46

Just so you know, measured inhibition for Cc1cccc(C)c1OC(=O)CSc1nnc(-c2ccccc2)o1 came out at -20

Just so you know, measured inhibition for Cc1ccc(S(=O)(=O)c2ccc(Oc3ccccc3)cc2)cc1 came out at -7.17

Just so you know, measured inhibition for O=C(CSc1ncn[nH]1)Nc1ccnc2ccccc12 came out at 2.49

Just so you know, measured inhibition for CSc1nc(N(C)NC(=O)c2cccc(C)c2)c2ccccc2n1 came out at 5.9

Just so you know, measured inhibition for O=C(NNC(=O)c1cccnc1)Nc1ccccc1 came out at 8.67

Just so you know, measured inhibition for CCN(CC)CCn1c2ccc(Cl)cc2c2nc(C)sc21 came out at -30.3

Just so you know, measured inhibition for CCOC(=O)c1cc2ccccc2nc1C came out at -7.13

Just so you know, measured inhibition for O=C(CCNS(=O)(=O)c1ccccc1C(F)(F)F)NCc1ccc2c(c1)OCO2 came out at -42.1

Just so you know, measured inhibition for Cc1nn(C(C)CC(=O)O)c(C)c1C (centres undefined) came out at -0.29

Just so you know, measured inhibition for CCC(C)NC(=O)CSC1=Nc2ccccc2C2=NC(CCC(=O)NCc3ccco3)C(=O)N12 (centres undefined) came out at 1.95

Just so you know, measured inhibition for Cn1nc([N+](=O)[O-])nc1Sc1ccc(C(C)(C)C)cc1 came out at 1.08

Just so you know, measured inhibition for CC(NC(=O)C1CCC(CNc2c(N3CCOCC3)c(=O)c2=O)CC1)c1ccccc1 (centres undefined) came out at 4.51

Just so you know, measured inhibition for CC(C)CCOc1ccc(C(=O)C[N+]2(C)CCOCC2)cc1 came out at 8.2

Just so you know, measured inhibition for O=c1cc(CN2CCN(c3cccc(Cl)c3)CC2)c2cc3c(cc2o1)CCCC3 came out at 2.36

Just so you know, measured inhibition for Cc1nc2ccccc2cc1OCc1ccc(F)cc1 came out at 56.8

Just so you know, measured inhibition for O=C1COc2ccc(NC(=O)N3CCN(c4ccc(F)cc4)CC3)cc2N1 came out at 9.28

Just so you know, measured inhibition for Cc1nc2ccccc2cc1O came out at -18.9

Just so you know, measured inhibition for COc1cc(N2CCCC2)c(OC)cc1/C=C(/C#N)c1cccc(Br)c1 came out at -9.11

Just so you know, measured inhibition for O=C(Nc1nccs1)c1cc(S(=O)(=O)N2CCOCC2)c(Cl)cc1Cl came out at 0.95

Just so you know, measured inhibition for COc1ccc(C(=O)Cc2cnn(-c3ccccc3)c2)c(O)c1 came out at -22.1
